# System: SKOV-3, ovarian carcinoma cell
# measurement.notes: Cytotoxicity, cell counting kit-8, SKOV-3
# Assay type: cell-based, human
# measurement.context: SKOV-3 cells, 72 h
assay.endpoint: IC50 (µM)

N.N.[Cl][Pt][Cl] [cisplatin, reference compound] ... 4.4

====

# System: KB-3-1 cancer cell line
# measurement.notes: Cytotoxicity, cell counting kit-8, KB-3-1
# Format: cell-based, human
# measurement.context: KB-3-1 cells, 72 h
assay.endpoint: IC50 (µM)

N.N.[Cl][Pt][Cl] [cisplatin, reference compound] ... 2.8
CCCC[N+](CCCC)(CCCC)CCCC [TBA Cl, reference compound] ... 289
